- TEST_DESCRIPTION: yeast display, Sf9 membrane polyspecificity reagent, FACS + sequencing; frameworks hold sequencing errors
OBSERVED_PROPERTY: polyreactivity (PSR sort gate)

Some sequences with known polyreactivity (PSR sort gate) results, for comparison:
* QVHLVESGGGLVQAGRSLRLSCAASGRIFSRYAMGGSRQAPGKERELVAVISRSGADTYYADSVKGRFTISRDNAKTTVYLQMNSLKPEDSAVYSCNAYSARRPHPMGYDYWGQCTQVTVSS | high polyreactivity
* QVQLVESGGGLVQAGGSLRLSCAASGRIFYYYAMGWYRQAPATERELFAGINSGGNTYADSVKGRFTISRDNAKNTVYLQMNSLKPEDTAVYYCATDFYSYAGGYYHHDHWGQGTQVTVSS | high polyreactivity
* QVQIVESGGGLVQAGGSLRLSCAASGFIFYYYDMGWYRQAPWKERELVAVLTESGSSTYYADSVKGRFTITRDNAKNNVYLQMNSLKPEDTAVYYCAADGRASVGGLGDDYWGQGTQVTVSS | low polyreactivity
* QFQLVESGGGLVQAGGSLRLSCAASGRTFGRYTMGWYRPAPGKEREFVARINWNGGGTYYEDSVKGRFTISRDNAKNTVYLQMNSLKPEDTEVYYCNARKRGARFILGYDYSGQGTQVTVSS | low polyreactivity
* QVQLVESGGGLVQAGGSLRLSCAASGFIFETNAMGWYRQAPGKERELVAAISSRGGSTYYADSVKGRFTISRDNAKNTVYLQMNSLKPEDTAVYYCAAKLVVSYGQEYDYWGQGTQVTVSS | low polyreactivity
* QVQLVESGGGLVQAGGSLRLSCAASGRIFAAYAMGWYRQAPGKERELVAGISRGGRTYYADSVKGRFTISRDNAKNTVYLQMNSLKPEDTAVYYCAKRATGQYSITAYGYDYWGQGTQVTVSS | low polyreactivity
* QVQLVESGGGLVQAGGSLRLSCAASGRTFRTYAMGWYRQAPGKERELVAAISFSDGSTYYADSVKGRFTISRDNAKNTVYLQMNSLKPEDTAVYYCAKEYEYPYYIRYQVGYDFDYWGQGTEVTVSS | low polyreactivity
* QVQLVESGGGLVQAGGSLRLSCAASGRTFSSYAMGWYRQAPGKERELVAAISWSGGRTYYADSVKGRFTISRDNAKNTVYLQMNSLKPEDTAVYYCAAEGDKRKYWYLYDYWGQGTQVTVSS | high polyreactivity

Request: Param item = QVQLVESGGGLVQAGGSLRLSCAASGFTFSDYAMGSNRQAPGKERELVAAITSRTGTTYYADSVKWRFTISRDNAKNTVYLQMNSLKPEDTAVYYCNKVKFRSQDMDYWGQGTQVTVSS ; retrieve measured polyreactivity (PSR sort gate).
Result: high polyreactivity

Request: // same read-out, input: QVQLVESGGGLVQAGGSLRLSCAASGSTFDYNAMGWYRQAPGKERELVAAINSGASTYYADSVKGRFTISRDNAKNTVYLQMNSLKPEDTAVYYCAKDYPYIGDYWGQGTQVTVSS
Result: low polyreactivity

Request: Now the sequence QVQIVESGGGLVQAGGSLRISCAASGRTIHLYDMGWYRQAPGKERELVAAITWSSGRTYYADSVKGRVTISRDNAKNTVYVQMNILKPEDTEVYYCAADVWGGLLPGYDYWGQGTQVTVSS
Result: high polyreactivity

###

- TEST_DESCRIPTION: yeast display, Sf9 membrane polyspecificity reagent, FACS + sequencing; frameworks hold sequencing errors
OBSERVED_PROPERTY: polyreactivity (PSR sort gate)

Below, each entry is followed by its recorded polyreactivity (PSR sort gate) result.
- QVQLVESGGGLVQAGGSLRLSCAASGGTLRYYAMGWYRQAPGKEREFVASISRSGGSTYYADSVKGRFTISRDNAKNTVYLQMNSLKPEDTAVYYCAAYWSPGYTTRRGYWGQGTQVTVSS: high polyreactivity
- QVQLVESGGGLVQAGVILRLSCAASGSTIGVNAMGWYRQPPAKERELVAAISLGGGRTYYADSVKGRFTISRDNAKNTVNLQMNCLKPEDTAVYYCNTDFGARMGYWGQGTQVTVSS: high polyreactivity
- QVQLVESGGGLVQAGGSLRLSCAASGSIFGIYVMGWYRQAPGKERELVAAISDGGSTYYADSVKGRFTISRDNAKNTVYLQMNSLKPEDTAVYYCAAEVHGWYSYYYWGQGTQVTVSS: high polyreactivity
- QVQLVETGGGLVQAGGSLRLSCAASGIIFREYAMGWYRQAPGKEMELVAAITRSGGSTNYADSVKGRFTISRDNAKNTVYLLMNSLKPEDTAVYYCASDYQRNDFRWYDYWGQGTLVTVSS: low polyreactivity

Below: the item to evaluate.
Request: Need polyreactivity (PSR sort gate), item QVQLVESGGGLDQAGGRLRLSCAASGRTFNVNVMGWYRQSPGKERELVAAIRYTGGSTYADSVKGRFTISRDNAKNTVYLQMNSLKPEDTAVDYCNADTFFPFDHGMDYWGQGTQVTVSS
Result: low polyreactivity

###

- TEST_DESCRIPTION: yeast display, Sf9 membrane polyspecificity reagent, FACS + sequencing; frameworks hold sequencing errors
OBSERVED_PROPERTY: polyreactivity (PSR sort gate)

Recorded polyreactivity (PSR sort gate), per entry:
- QVQLVESGGGLVQAGGSLRLSCAASGPTFYKYAMGWYRQAPGKERELVATITRRGGSTYYADSVKGRFTISRDNAKNTVYLQMNSLKPEDTAVYYCAKEIFQKGPDGHDYWGQGTQVTVSS: low polyreactivity
- QVQLVESGGGLVQAGGSLRLSCAASGLIIPYYAMGWSRQAPGKERELVAGITSDGSTNYADSVMGRFTISRDNAKIIVYLQMYSLKPVDTAVYYCAKEQGLYSVSPYDYWGQGTQVSVSS: low polyreactivity
- QVQLVESGGGLVQAGGSLRLSCAASGYIFSYNAMGWYRQAPGKERELVAAISRTGGSTNYADSVKGRFTISRDNAKNTVYLQMNSLKPEDTAVYYCAKRYRYPSWGEYGYWGQGTQVTVSS: high polyreactivity
- QVQLVESGGGLVQAGGSLRLICAASGSIFHVNSMGWYRQAPGKERELVAGISDGGSTYYADSVKGRFTISRDNAKNTVYLQMNSLKPEDTAVSYCAAESEQWYSYVLSYDWEYDYWGQGTHVTVSS: low polyreactivity
- QVQLVESGGGLVQAGGSLRLSCAASGSIYRYAMGSYRQAPGKERELVAAINFNGGRTYYADSVKGRFTISRDNAKNTVYLQMNSLKPEDTAVYYCAAVRSSNQGGFDYWGQGTQVTVSS: high polyreactivity

Request: Please give the measured polyreactivity (PSR sort gate) for this sequence: QVQLVESGGGLVQAGGSLRLSCAASGRIFNWYGMGWYRQAPGKERELVATISSSGDSTYYADSVKGRFTISRDNAKNTVYLQMNSLKPEDTAVYYCAKRARYKFGYWGQGTQVTVSS
Result: high polyreactivity

Request: Try this sequence next: QVQLVESGGGLVQAGGSLRLSCAASGSIFGYYVMGWYRQAPGKERELVAAITKSGGSTYYADSVKGRFTISRDNAKNTVYLQKNSLKPEDTAVYYCAKRFYSTGYGRFDYWGQGTQVTVSS
Result: high polyreactivity

###

- TEST_DESCRIPTION: yeast display, Sf9 membrane polyspecificity reagent, FACS + sequencing; frameworks hold sequencing errors
OBSERVED_PROPERTY: polyreactivity (PSR sort gate)

// worked examples, polyreactivity (PSR sort gate) included
* PVQLVESGGGLVQAGGSLRLSCAASGRTFNSYPMVWYRQAPGKERELVADITSSGGSTYADSVKGRFTISRDNAKNTVYLQMNSLKPEDTAVYYCAVDNISNWAVENDYWGQGTQVTVSS | low polyreactivity
* QVQLVESGGGLVQAGGILRLSCAASGSIFYHYAMGWYRQAPGKDREFVAAITRRGTSTYYADSVKGRFTISRDIAKKTVYLQMNSLKPEDTAVYYWAARYGPNMDYWGQGTQVTVSS | high polyreactivity
* QAQSVESGGGLVQAGGSLRLICAASGITFGNYAMGWYRQAPGKERALVASISWNVGSTYYADSVKGRFTISRDNAKNTVYLQMNSLKPEDTSVYYCARGYDRPRVATFHRFDYWGQGTQVTVSS | low polyreactivity
* QVQLVESGGGLVQAGGSLRLSCAASGLIFSSYPKGWYRQAPGKEWVLVAAITRTGGDTYYADSVKGRFTISRDNAQNSFYLQMNSLKPEDTAVYYCSSSGPQYYSRNFDYWGQGTQVTVSS | low polyreactivity
* QVQLEESGGGLVQAGASLRLSCDASGSIFKKYAMGWYRPAPGKEWELVPAITRGTYYADSVKGRFTISRDNAKNTVYLQMNSLKPEDTAVYYCNREFWGRGYYRVRGEYDYWGQGTQVTVSS | low polyreactivity

API: the following record is the query input.
Request: What does the data say about its polyreactivity (PSR sort gate)? Entry: QVQLVESCGGLVQAGGSLRLSCAASGRIFRDYAMGWYRQAPGKERELVATITRSGGRTYYADSVKGRFTISRDNAKNTVFLQMNSLKPEDTSVYYCAATYWTYPYHYQYKYDYWGQGTQVTVSS
Result: high polyreactivity
